# Tested on: L1210 leukemia ip in BDF1 mice, survival T/C
# Protocol: NCI In Vivo Anticancer Drug Screen. Data for tumor model L1210 Leukemia (intraperitoneal) in B6D2F1 (BDF1) mice
# Assay conditions: endpoint: mean survival time; dose: 100.0 mg/kg/injection; schedule: Q04DX003 (ip); vehicle: saline with Tween-80; higher = longer survival
Toxic doses and inconclusive results are not listed.
# T/C annotations

// below: answered compounds
compound=O=C(Nc1[nH]nc2nccnc12)C(F)(F)F result="105 % of control"
compound=CSc1nc2cc(C)c(C)cc2[nH]1 result="107 % of control"
compound=CCc1occ(C(=O)OC)c1C(=O)OC result="95 % of control"
compound=CCC(N)(CO)CO result="98 % of control"
compound=Oc1cccnc1CN1CCOCC1 result="97 % of control"
compound=CC(C)N(C)c1ccc(N=Nc2cc(Cl)ccc2Cl)cc1 result="98 % of control"
compound=Nc1nc2c(ncn2-c2cccc(-c3ccccc3)c2)c(=O)[nH]1 result="100 % of control"
compound=CC(C)(c1ccsc1)c1sccc1C(=O)O result="100 % of control"
compound=Nc1ccc(Cl)cc1-c1nc2ccccc2[nH]1 result="91 % of control"
compound=C=CC[As](=O)(O)O result="92 % of control"

Any idea what its T/C is? The compound is `CCCCCCCCCCCCCCCC(=O)OCCCCCCCCCC`
100 % of control

Param item: `Cc1ccc(S(=O)(=O)N/N=C(\CSc2ccc([N+](=O)[O-])cc2)c2ccccc2)cc1`
87 % of control

Another compound to look at: BrC1C2CC(c3ccccc32)C1Br (stereo not given)
94 % of control

Next: CC12CCC(CC1C(=O)O)C2 (stereo not given)
96 % of control

And the next one, CCCCCCCCC1SC1CCCCCCCC(=O)N1CCCN(C(=O)CCCCCCCC2SC2CCCCCCCC)C1 (stereo not given) ?
92 % of control

Queued: `O=C(O)c1c[nH]n2c(=S)ncnc12`
96 % of control

Now try O=C(O)C1CCCCC1C(=O)Nc1cccc(C(F)(F)F)c1 (stereo not given) .
102 % of control

What would you report for `COC(OC)c1[nH]c(=S)[nH]c(=O)c1Cc1ccc(C)c(C)c1` ?
94 % of control

Now consider `OCCC(c1ccccc1)(c1ccccc1)c1ccccc1` and answer again.
90 % of control

Another compound to check: COc1ccc(OC)c(C(Nc2ccc3cn[nH]c3c2)P(=O)(c2ccccc2)c2ccccc2)c1 (stereo not given)
96 % of control

Same again, this time with `Cc1cccc(NC(=O)NCCOC(=O)OCCNC(=O)Nc2cccc(C)c2C)c1C`
91 % of control

# iterate: CC(C)=CCNc1ncnc2c1ncn2C1OC(CO)C(O)C1O (stereo not given)
96 % of control

Similarly, `CC(=O)Nc1ccc(/C=C/c2cc[n+](C)cc2)cc1` ?
97 % of control

Follow-up entry: `CCCOP(=O)(OCCC)C(OC(=O)C(C)(C)SC(=S)CCC)=C(C)C`
97 % of control

Now the compound `NC(=O)Cn1cnc2c(Cl)ncnc21`
104 % of control

Also check COc1cc2c(c(OC)c1OC)-c1ccc(SC)c(=O)cc1C(N=Cc1ccccc1)CC2 (stereo not given)
106 % of control

What do we get for `COc1ccc(C(=O)/C=C/c2ccccc2Cl)cc1` ?
97 % of control

Another: `O=C(/C=C/c1ccc(Cl)cc1Cl)c1ccc(Cl)cc1`
95 % of control

What do you get for CC(C)C(NC(=O)C1CSC(C)(C)N1C=O)C(N)=O (stereo not given) ?
101 % of control

Entry to check: `CC(C)NC(=O)N(c1ccccc1)C(C)C`
98 % of control
